Biological target: Adrenergic receptor alpha (Homo sapiens) (UniProt P35348+P08913+P18825+P25100+P35368+P18089)
Experiment: Ratio of Ki of alpha-1 to Ki of alpha-2 adrenoceptor
Format: protein assay
# Ratio per record follows

| COMPOUND | Ratio |
| --- | --- |
| NCC1OCc2c1ccc(O)c2O (stereo not given) | 127 |
| CNCC1OCc2c1ccc(O)c2O (stereo not given) | 112 |
| CN(C)CC1OCc2c1ccc(O)c2O (stereo not given) | 109 |
| NCC1OCc2cc(O)c(O)cc21 (stereo not given) | 9.7 |
| NCC1CCc2c1ccc(O)c2O (stereo not given) | 145 |
| CNCC1CCc2c1ccc(O)c2O (stereo not given) | 323 |
| CN(C)CC1CCc2c1ccc(O)c2O (stereo not given) | 276 |
| NCC1CCc2cc(O)c(O)cc21 (stereo not given) | 50 |
| CCCN(CCC)CC1OCc2c1ccc(O)c2O (stereo not given) | 15 |
| CCCN(CCC)CC1CCc2c1ccc(O)c2O (stereo not given) | 16 |
